I'd appreciate it if you could supply IC50 values for the items below.
# assayed.target: FGFR1-GST (Homo sapiens)
# Construct: GST; made in house
# Sequence (P11362 22-822): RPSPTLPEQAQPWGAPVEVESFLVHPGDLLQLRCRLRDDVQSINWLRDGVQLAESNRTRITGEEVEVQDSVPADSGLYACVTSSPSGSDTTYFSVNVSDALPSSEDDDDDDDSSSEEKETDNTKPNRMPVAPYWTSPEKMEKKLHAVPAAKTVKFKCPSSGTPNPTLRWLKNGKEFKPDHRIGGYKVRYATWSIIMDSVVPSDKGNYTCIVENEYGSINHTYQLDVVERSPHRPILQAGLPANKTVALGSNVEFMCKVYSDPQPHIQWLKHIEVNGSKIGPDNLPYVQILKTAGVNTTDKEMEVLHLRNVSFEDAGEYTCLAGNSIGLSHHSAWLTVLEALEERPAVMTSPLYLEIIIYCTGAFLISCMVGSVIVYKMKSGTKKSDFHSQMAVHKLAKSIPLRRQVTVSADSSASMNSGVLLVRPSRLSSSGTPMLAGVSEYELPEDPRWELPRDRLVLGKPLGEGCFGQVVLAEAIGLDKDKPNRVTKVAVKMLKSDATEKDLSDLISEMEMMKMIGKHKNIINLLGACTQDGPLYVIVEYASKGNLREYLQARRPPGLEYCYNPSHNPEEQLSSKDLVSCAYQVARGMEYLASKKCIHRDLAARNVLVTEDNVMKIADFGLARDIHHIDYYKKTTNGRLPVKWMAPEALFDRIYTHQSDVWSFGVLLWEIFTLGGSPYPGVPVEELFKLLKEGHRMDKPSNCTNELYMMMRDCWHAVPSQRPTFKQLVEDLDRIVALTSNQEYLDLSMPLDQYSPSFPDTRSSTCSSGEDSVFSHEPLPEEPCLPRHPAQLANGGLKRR
# experiment.summary: FGFR-1 TR-FRET biochemical assay
# applied.conditions: bounds given in nM

Consider the worked cases shown below.
Nc1ncnn2c(CN3CCOCC3)c(Cl)c(-c3cc(F)c(NC(=O)Nc4cc(C(F)(F)F)ccc4F)cc3F)c12 ... > 100 nM
COCc1c(-c2ccc(NC(=O)Nc3cc(C(F)(F)F)ccc3F)cc2)c2c(N)ncnn2c1COC ... 10 to 100 nM

Batch request: IC50 per item, same order as input.
1. COCc1c(-c2ccc(NC(=O)Nc3cc(C)ccc3F)c(F)c2)c2c(N)ncnn2c1CN1CCOCC1
2. CON(C)C(=O)c1c(-c2ccc(NC(=O)Nc3cc(C(F)(F)F)ccn3)cc2)c2c(N)ncnn2c1CN1CCN(C)CC1
3. CC(C)(C)C(=O)c1c(-c2ccc(NC(=O)Nc3cc(C(F)(F)F)ccn3)cc2)c2c(N)ncnn2c1CN1CCOCC1
4. Nc1ncnn2c(CN3CCOCC3)c(CO)c(-c3ccc(NC(=O)Nc4cc(C(F)(F)F)ccn4)c(F)c3)c12
5. Cc1c(-c2cc(F)c(NC(=O)Nc3cc(C(F)(F)F)ccc3F)cc2F)c2c(N)ncnn2c1CN1CCOCC1
6. CCOC(=O)c1c(-c2ccc(NC(=O)Nc3cc(C(F)(F)F)ccn3)cc2)c2c(N)ncnn2c1C#N

["< 10 nM", "> 100 nM", "> 100 nM", "10 to 100 nM", "10 to 100 nM", "> 100 nM"]

----------
# assayed.target: FGFR1-GST (Homo sapiens)
# Construct: GST; made in house
# experiment.summary: FGFR-1 TR-FRET biochemical assay
# applied.conditions: bounds given in nM
I'd appreciate it if you could supply IC50 values for the items below.

CCOC(=O)c1c(-c2ccc(NC(=O)Nc3cc(C(F)(F)F)ccn3)cc2)c2c(N)ncnn2c1-c1cccc(F)c1 ... 10 to 100 nM
COCc1c(-c2ccc(NC(=O)Nc3cccc(C(C)(C)C)c3)c(F)c2)c2c(N)ncnn2c1CN1CCOCC1 ... < 10 nM
Nc1ncnn2c(CN3CCOCC3)c(-c3cnco3)c(-c3ccc(NC(=O)Nc4cc(C(F)(F)F)ccn4)c(F)c3)c12 ... < 10 nM
Nc1ncnn2c(CN3CCOCC3)c(-c3cnco3)c(-c3ccc(NC(=O)Nc4cccc(OC(F)(F)F)c4)cc3)c12 ... < 10 nM
COCc1c(-c2ccc(NC(=O)Nc3cc(C(F)(F)F)ccc3Cl)c(F)c2)c2c(N)ncnn2c1CN1CCOCC1 ... 10 to 100 nM

Batch request: IC50 per item, same order as input.
1. COCCN(C)Cc1c(-c2ccc(NC(=O)Nc3cc(C(F)(F)F)ccc3F)cc2)c2c(N)ncnn2c1CN1CCOCC1
2. COCc1c(-c2ccc(NC(=O)Nc3cccc(C(F)(F)F)n3)cc2)c2c(N)ncnn2c1CN1CCOCC1
3. COCc1c(-c2ccc(NC(=O)Nc3cc(C(F)(F)F)ccc3F)c(F)c2)c2c(N)ncnn2c1C1CCNCC1
4. N#CCc1c(-c2ccc(NC(=O)Nc3cc(C(F)(F)F)ccn3)cc2)c2c(N)ncnn2c1CN1CCNC(=O)C1
5. N#CCc1c(-c2ccc(NC(=O)Nc3cc(C(F)(F)F)ccc3Cl)c(F)c2)c2c(N)ncnn2c1CN1CCS(=O)(=O)CC1
6. CNCc1c(-c2ccc(NC(=O)Nc3cc(C(F)(F)F)ccc3F)cc2)c2c(N)ncnn2c1CN1CCOCC1
7. Nc1ncnn2c(CN3CCOCC3)c(C(F)F)c(-c3ccc(NC(=O)Nc4cc(C(F)(F)F)ccc4F)c(F)c3)c12
8. CC(=O)c1c(-c2ccc(NC(=O)Nc3ccc(OC(F)(F)F)cc3)c(F)c2)c2c(N)ncnn2c1CN1CCOCC1

> 100 nM
> 100 nM
10 to 100 nM
< 10 nM
< 10 nM
10 to 100 nM
10 to 100 nM
10 to 100 nM

So, `N#Cc1c(-c2ccc(NC(=O)Nc3cc(C(F)(F)F)ccc3F)cc2)c2c(N)ncnn2c1CN1CCOCC1` ? Its IC50 was < 10 nM

Reference source for all entries: patent US8829185B2
